- assayed.target: Rhodesain (Trypanosoma brucei rhodesiense) (UniProt Q95PM0)
- Sequence (Q95PM0 1-450): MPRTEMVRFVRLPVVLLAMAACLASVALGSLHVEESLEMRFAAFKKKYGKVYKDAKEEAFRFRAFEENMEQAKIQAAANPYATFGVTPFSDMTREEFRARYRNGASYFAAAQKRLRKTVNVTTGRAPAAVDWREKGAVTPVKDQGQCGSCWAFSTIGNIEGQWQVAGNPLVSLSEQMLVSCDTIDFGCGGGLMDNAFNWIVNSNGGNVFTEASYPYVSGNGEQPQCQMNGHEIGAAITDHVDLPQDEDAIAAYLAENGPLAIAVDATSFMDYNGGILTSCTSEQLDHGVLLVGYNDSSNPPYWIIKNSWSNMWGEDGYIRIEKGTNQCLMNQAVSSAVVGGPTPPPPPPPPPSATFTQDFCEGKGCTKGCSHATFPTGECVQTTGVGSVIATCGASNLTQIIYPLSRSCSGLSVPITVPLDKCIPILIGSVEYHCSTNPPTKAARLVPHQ
- assay: Reversible inhibition of Trypanosoma brucei rhodesiense rhodesain assessed as enzyme activity recovery preincubated for 5 mins followed by substrate addition measured after 30 mins by dialysis assay relative to control
- Set-up: scale not given: the % may be the effect or the level left
quantity.measured: Activity (%)
State just the number; it will be interpreted in %.

Recorded result, CC(C)C[C@H](NC(=O)OCc1ccccc1)C(=O)N[C@H](/C=C/[N+](=O)[O-])CCc1ccccc1 , Activity: 22

Lookup result for CC(C)C[C@@H](/C=C/[N+](=O)[O-])NC(=O)[C@H](Cc1ccccc1)NC(=O)OCc1ccccc1 ; measured Activity: 16

Measured Activity, CC(C)C[C@@H](/C=C/[N+](=O)[O-])NC(=O)[C@H](CC(C)C)NC(=O)OCc1ccccc1 : 17

Looking up CN1CCN(C(=O)N[C@@H](Cc2ccccc2)C(=O)N[C@H](/C=C/S(=O)(=O)c2ccccc2)CCc2ccccc2)CC1 , I see its Activity listed as 0
